Measured values drawn from paper PMC5540273 for this set.

Measured %Inh accompanies every entry in the list below.
# System: TRPM6;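 note: KINOMEscan kinase panel screen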
# test-context: concentration: 1 μM,replicates: in singlicate; n = 1
Field: numeric (%). Do not append units.

>>> print(df.to_string())
                                   compound  unit_spec  recorded_measurement
0  OCCn1cc(-c2cnc3nnn(Cc4ccc5ncccc5c4)c3n2)cn1          %                     0
1  Cc1ccc(C(=O)Nc2ccc(Oc3ccc4nc(NC(=O)C5CC5)cn4c3)c(F)c2)c(=O)n1-c1ccccc1          %                     0
2  Cc1nnc(-c2ccc3occ(-c4ccc(S(C)=O)cc4)c3n2)o1 (stereo not shown)          %                     0
3  C[C@@H]1CCN(C(=O)N2CCCC2)C[C@@H]1N(C)c1ncnc2[nH]ccc12          %                     4
4  Cn1ccc2ncnc(Oc3ccc(NC(=O)Nc4cnn(C(C)(C)C)c4)c(Cl)c3)c21          %                     0
5  COc1cccc(CNC(=O)NC2CCN(c3ccnc(Nc4cc(OC)c(OC)c(OC)c4)n3)C2)c1 (stereo not shown) [GSK1379765]          %                     0
6  COc1cc2c(Nc3ccc(NC(=O)c4ccccc4)cc3)ncnc2cc1OCCCN1CCOCC1 [GSK301329]          %                    23
7  Cn1ccc2ncnc(Oc3ccc(NC(=O)Nc4cc(C(C)(C)C)on4)c(Cl)c3)c21          %                     0
8  COc1ccc(Nc2nccc(N3CCC(NC(=O)c4cccc(C#N)c4)C3)n2)cc1 (stereo not shown) [GSK1379730]          %                     0
9  Cl.Nc1n[nH]c2cc(-c3ccccn3)ccc12 [GSK2189892]          %                     0

Query block: Fill in %Inh for Cn1ccc2ncnc(Oc3ccc(NC(=O)Nc4cccc(C(F)(F)F)c4)c(Cl)c3)c21 tested with TRPM6.
Result block: 0

Query block: Fill in %Inh for CN1CCN(CCCNc2nccc(-c3c(-c4ccc(F)cc4)nn4cc(C(N)=O)ccc34)n2)CC1 [GW622475] tested with TRPM6.
Result block: 23

Query block: Fill in %Inh for CN(c1ccccc1CNc1nc(Nc2ccc3c(c2)CC(=O)N3)ncc1C(F)(F)F)S(C)(=O)=O tested with TRPM6.
Result block: 0

Query block: Fill in %Inh for O=C(Nc1ccccc1)c1cccc(Oc2ccc3nccn3n2)c1 tested with TRPM6.
Result block: 0

Query block: Fill in %Inh for FC(F)(F)c1cc(Br)cc(Nc2nccc(-c3cnn4ncccc34)n2)c1 [GW810578] tested with TRPM6.
Result block: 0

Query block: Fill in %Inh for COC(=O)c1cccc(NC(=O)NC2CCN(c3ccnc(Nc4cc(OC)c(OC)c(OC)c4)n3)C2)c1 (stereo not shown) [GSK1379767] tested with TRPM6.
Result block: 0

Query block: Fill in %Inh for CS(=O)(=O)Nc1ccc(-c2ccnc3[nH]ccc23)cc1 [GSK993273] tested with TRPM6.
Result block: 27

Query block: Fill in %Inh for Cn1ccc2ncnc(Oc3ccc(NC(=O)Nc4ccnc(C(F)(F)F)c4)c(Cl)c3)c21 tested with TRPM6.
Result block: 0
